- TARGET SYSTEM: T1, human CEACAM5 (carcinoembryonic antigen, CEA) on cells (human, UniProt P06731 35-685)
- T1 construct: endogenous on MKN45 gastric adenocarcinoma cells; full-length cDNA stably transfected in the CHO-K1 clones; also called huCEACAM5; MKN45 cells
- T1 sequence: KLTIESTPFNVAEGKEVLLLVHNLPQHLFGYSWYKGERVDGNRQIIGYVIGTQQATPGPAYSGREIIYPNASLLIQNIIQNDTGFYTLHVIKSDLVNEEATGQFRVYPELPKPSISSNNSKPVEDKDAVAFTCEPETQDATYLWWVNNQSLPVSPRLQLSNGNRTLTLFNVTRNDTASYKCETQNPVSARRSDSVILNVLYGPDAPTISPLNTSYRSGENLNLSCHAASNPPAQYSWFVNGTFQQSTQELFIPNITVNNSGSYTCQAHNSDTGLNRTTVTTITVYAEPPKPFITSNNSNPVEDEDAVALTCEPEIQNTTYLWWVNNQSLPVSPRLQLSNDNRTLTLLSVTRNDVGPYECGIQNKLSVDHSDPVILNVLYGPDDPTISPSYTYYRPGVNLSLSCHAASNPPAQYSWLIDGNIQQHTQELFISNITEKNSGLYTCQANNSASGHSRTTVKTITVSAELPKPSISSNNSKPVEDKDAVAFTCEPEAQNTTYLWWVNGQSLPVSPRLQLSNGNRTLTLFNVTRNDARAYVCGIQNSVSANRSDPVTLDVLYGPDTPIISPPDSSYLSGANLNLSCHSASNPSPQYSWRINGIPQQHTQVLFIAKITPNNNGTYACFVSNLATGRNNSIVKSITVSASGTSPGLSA
- TEST DETAILS: flow cytometry, MKN45 cells
Could you please report measured EC50 for the items listed next?
Numbers only, in nM.

Solved entries (count: 2):
BINDER	EC50 [nM]
P1AE3121 (antibody, IgG1, V domains shown, huIgG1 P329G LALA; also called MFE-H28 / MFE-L24) VH: QVQLVQSGAEVKKPGASVKVSCKASGFNIKDSYMHWVRQAPGQGLEWMGWIDPENGDTEYAPKFQGRVTMTRDTSISTAYMELSRLRSDDTAVYYCNEGTPTGPYYFDYWGQGTLVTVSS VL: DIQMTQSPSSLSASVGDRVTITCRASSSVSYMHWYQQKPGKAPKLLIYSTSNLASGVPSRFSGSGSGTDFTLTISSLQPEDFATYYCQQRSSYPLTFGGGTKLEIK	17.1
P1AE3091 (antibody, IgG1, V domains shown, huIgG1 P329G LALA; also called MFE-H28 / MFE-L29) VH: QVQLVQSGAEVKKPGASVKVSCKASGFNIKDSYMHWVRQAPGQGLEWMGWIDPENGDTEYAPKFQGRVTMTRDTSISTAYMELSRLRSDDTAVYYCNEGTPTGPYYFDYWGQGTLVTVSS VL: EIQMTQSPSSLSASVGDRVTITCRASSSVPYMHWLQQKPGKAPKLLIYSTSSLQSGVPSRFSGSGSGTDFTLTISSVQPEDFATYYCQQRSSYPLTFGGGTKLEIK	14.6

# context switch: different binder, same EC50
Task: Look at this binder and give its reported EC50. P1AE3115 (antibody, IgG1, V domains shown, huIgG1 P329G LALA; also called MFE-H28 / MFE-L25) VH: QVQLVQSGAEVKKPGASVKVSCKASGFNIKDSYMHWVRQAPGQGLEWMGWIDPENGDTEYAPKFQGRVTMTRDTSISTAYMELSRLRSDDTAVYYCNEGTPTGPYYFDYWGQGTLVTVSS VL: EIQMTQSPSSLSASVGDRVTITCRASSSVSYMHWYQQKPGKAPKLLIYSTSNLASGVPSRFSGSGSGTDFTLTISSLQPEDFATYYCQQRSSYPLTFGGGTKLEIK
Output: 20.7

Ref: patent US20220267464A1
